Listed here are compounds together with their documented GI50.
Test system: COLO 205
Assay: NCI tumour cell line growth inhibition, 48 h
Activity calls are given as the source filed them. Rule as the data show it: active = GI50 up to about 1.1 µM and inactive = higher.

{"compound": "O=C1C(c2ccc(C3=[N+]([O-])c4cc([N+](=O)[O-])ccc4C3=O)cc2)=[N+]([O-])c2cc([N+](=O)[O-])ccc21", "target.or.test.system": "COLO 205", "GI50": "> 10 µM (inactive)"}
{"compound": "O=C1C2Cc3c(n(C(=O)c4ccccc4)c4ccccc34)CC2C(=O)N1c1ccc(Nc2ccc(N3C(=O)C4Cc5c(n(C(=O)c6ccccc6)c6ccccc56)CC4C3=O)cc2)cc1 (centres undefined)", "target.or.test.system": "COLO 205", "GI50": "> 100 µM (inactive)"}
{"compound": "CC(C)(C)OC(=O)CN1CCNCCNCC1", "target.or.test.system": "COLO 205", "GI50": "> 100 µM (inactive)"}
{"compound": "Nc1cc(CO)cc(Nc2c3ccccc3nc3ccccc23)c1", "target.or.test.system": "COLO 205", "GI50": "11.6 µM (inactive)"}
{"compound": "O=C(Nc1nc2ncn(CCNCc3ccccc3)c2c(=O)[nH]1)c1ccccc1", "target.or.test.system": "COLO 205", "GI50": "> 100 µM (inactive)"}

# input Entry NC(N)=NCCC(O)(P(=O)(O)O)P(=O)(O)O has what GI50?
# output > 100 µM (inactive)

# input Entry NC(=O)C1CCN(Cc2c(Cl)c(Cl)c(CN3CCC(C(N)=O)CC3)c(Cl)c2Cl)CC1 has what GI50?
# output > 100 µM (inactive)

# input Entry CO/N=C1/c2sccc2[C@H](NC(=O)CNC(=O)OC(C)(C)C)[C@@H]1O has what GI50?
# output > 100 µM (inactive)

# input Entry O=C(O)C1(Nc2ccc(Cl)cc2)CCCC1 has what GI50?
# output 33 µM (inactive)

---

Test system: 786-0
Assay: NCI tumour cell line growth inhibition, 48 h
Active and inactive are the calls of the source. Rule as the data show it: active = GI50 up to about 1.1 µM and inactive = higher.
Hi! Could you answer with just one of these? active, inactive

# input How did this test come out for NNC(=O)c1cccc2c1Oc1ccccc1S2 ?
# output inactive

# input How did this test come out for CC(CO)CCC(O)C(C)(O)C1CCC2(O)C3=CC(=O)C4CC(O)C(O)CC4(C)C3CCC12C (stereo not given) ?
# output inactive

# input How did this test come out for CCCN(CCC)c1c([N+](=O)[O-])cc(C(=O)N(C)C)cc1[N+](=O)[O-] ?
# output inactive

# input How did this test come out for Cn1c2c3ccccc3nc-2c(O)c2ccccc21 [HYDROXYCRYPTOLEPINE] ?
# output inactive

# input How did this test come out for O=C(c1ccccc1)c1ccc(-n2c3ccccc3c3ccc4c(c32)C(=O)C=CC4=O)cc1 ?
# output inactive

---

Listed here are compounds together with their documented GI50.
Tested on: 786-0
Test: NCI tumour cell line growth inhibition, 48 h
Activity calls are given as the source filed them. No stated cut-off is given here; in the data, active = GI50 up to about 1.1 µM and inactive = higher.

{"compound": "O=C(O)c1ccc(C2C(=O)N[C@@H]3CCC[C@H]23)cc1 (stereo partly drawn)", "GI50": "> 100 µM (inactive)"}

# input Entry O=C(CCCNC(=O)OCc1ccccc1)OCc1ccc2c(c1)C(=O)c1ccccc1C2=O has what GI50?
# output 25.3 µM (inactive)

# input Entry Cc1ccc(Sc2ccccc2N)cc1 has what GI50?
# output 29.2 µM (inactive)

# input Entry COC(=O)C1(C(=O)OC)Cc2ccc(OC)cc2C2=C1C(=O)c1ccccc1C2=O has what GI50?
# output 4.75 µM (inactive)

# input Entry N/N=C1\C(=O)N(C2CCCCCC2)C(=O)C1C(=O)NC1CCCCCC1 (stereo not drawn) has what GI50?
# output 29.6 µM (inactive)

# input Entry Cc1ccc(-n2cc(/C(N)=N/O)c3ccccc3c2=O)cc1 has what GI50?
# output > 100 µM (inactive)

# input Entry Cc1cc(-c2cc(C(C)(C)C)c(O)c(C(C)(C)C)c2)c(C)cc1-c1cc(C(C)(C)C)c(O)c(C(C)(C)C)c1 has what GI50?
# output > 100 µM (inactive)

# input Entry CSc1cnc2ccccc2c1SC1CN(Cc2ccccc2)c2ccccc2C1=O (stereo not drawn) has what GI50?
# output > 100 µM (inactive)
